- method_notes: Mouse PO pharmacokinetics (plasma and brain)
- Format: in vivo
- condition_context: male, C57BL/6, mouse, brain, 5 mg/kg; at Tmax after PO administration; read-out: brain level as share of the plasma level
- Experimental: For determining plasma and brain pharmacokinetics blood samples (via cardiac puncture into heparinized tubes and centrifuged for plasma at 4 °C) and brains were terminally sampled at 0.25, 0.5, 1, 2, 3, 4, 6, and 8 h timepoints post dosing. Three animals per timepoint were sampled. […] The pharmacokinetic parameters were subsequently calculated by noncompartmental methods. […] Samples were analyzed by high resolution accurate mass UHPLC-TOF MS. […]
metric: Kp
Field format: numeric only.

// returns reported Kp for input COc1ccc2sc(-c3cncc(NC(C)=O)c3)nc2c1
0.5

* * *

- method_notes: Mouse PO pharmacokinetics (plasma and brain)
- Format: in vivo
- condition_context: male, C57BL/6, mouse, plasma, po, 5 mg/kg, mouse, PO 5 mg/kg
metric: Tmax (h)
Dear colleague, please return just the value in h, with no unit written.

// returns reported Tmax for input COc1ccc2sc(-c3cncc(NC(C)=O)c3)nc2c1
1

* * *

- method_notes: Mouse PO pharmacokinetics (plasma and brain)
- Format: in vivo
- condition_context: male, C57BL/6, mouse, plasma, po, 5 mg/kg, PO administration
metric: Tmax (min)
Dear colleague, please return just the value in min, with no unit written.

// returns reported Tmax for input COc1ccc2sc(-c3cncc(NC(C)=O)c3)nc2c1 [PST-001]
15

* * *

- method_notes: Rat IV pharmacokinetics
- Assay type: in vivo
- condition_context: male, Sprague-Dawley, IV 1 mg/kg, plasma
- Experimental: For determining plasma pharmacokinetics blood samples (via cardiac puncture into heparinized tubes and centrifuged for plasma at 4 °C) were serially sampled via jugular vein at […], 0.5, 5, 15, and 30 min, 1, 2, 4, 8, and 24 h timepoints post dosing. Three animals per timepoint were sampled. All samples were stored at −20 °C pending analysis. […] The pharmacokinetic parameters were subsequently calculated by noncompartmental methods. […] Samples were analyzed by high resolution accurate mass UHPLC-TOF MS. […]
metric: Vd

// returns reported Vd for input COc1ccc2sc(-c3cncc(NC(C)=O)c3)nc2c1 [PST-001]
2.39 L/kg

* * *

- method_notes: Rat IV pharmacokinetics
- Assay type: in vivo
- condition_context: Sprague-Dawley (rat), C57BL/6 (mouse), plasma, intravenous, oral, mouse or rat, IV or PO, read-out: t1/2 in plasma
metric: half-life

// returns reported half-life for input COc1ccc2sc(-c3cncc(NC(C)=O)c3)nc2c1 [PST-001]
< 1 h

* * *

- method_notes: Mouse IV pharmacokinetics (plasma and brain)
- Format: in vivo
- condition_context: C57Bl, IV 1 mg/kg, plasma
metric: Cmax (ng/mL)
Dear colleague, please return just the value in ng/mL, with no unit written.

// returns reported Cmax for input COc1ccc2sc(-c3cncc(NC(C)=O)c3)nc2c1 [PST-001]
362

* * *

- method_notes: Mouse PO pharmacokinetics (plasma and brain)
- Format: in vivo
- condition_context: male, C57BL/6; mouse, PO 5 mg/kg, brain; read-out: t½ (converted)
metric: half-life (min)
Dear colleague, please return just the value in min, with no unit written.

// returns reported half-life for input COc1ccc2sc(-c3cncc(NC(C)=O)c3)nc2c1 [PST-001]
16.2

* * *

- method_notes: Rat IV pharmacokinetics
- Type: in vivo
- condition_context: male, Sprague-Dawley, plasma, iv, 1 mg/kg, IV 1 mg/kg, read-out: t½ (converted)
metric: half-life (min)
Dear colleague, please return just the value in min, with no unit written.

// returns reported half-life for input COc1ccc2sc(-c3cncc(NC(C)=O)c3)nc2c1
43.2

* * *

- method_notes: Mouse PO pharmacokinetics (plasma and brain)
- Format: in vivo
- condition_context: male, C57BL/6, mouse, brain, po, 5 mg/kg, mouse, PO 5 mg/kg
metric: Tmax

// returns reported Tmax for input COc1ccc2sc(-c3cncc(NC(C)=O)c3)nc2c1 [PST-001]
15 min

* * *

- method_notes: Mouse IV pharmacokinetics (plasma and brain)
- Assay type: in vivo
- condition_context: C57Bl, IV 1 mg/kg, brain
metric: Cmax (ng/mL)
Dear colleague, please return just the value in ng/mL, with no unit written.

// returns reported Cmax for input COc1ccc2sc(-c3cncc(NC(C)=O)c3)nc2c1
867

* * *

- method_notes: Mouse IV pharmacokinetics (plasma and brain)
- Format: in vivo
- condition_context: C57Bl, IV 1 mg/kg, plasma
metric: clearance
Just so you know, I need the unit written after the number.

// returns reported clearance for input COc1ccc2sc(-c3cncc(NC(C)=O)c3)nc2c1
198 mL/min/kg

* * *

- method_notes: Rat IV pharmacokinetics
- Assay type: in vivo
- condition_context: male, Sprague-Dawley, plasma, iv, 1 mg/kg, IV bolus 1 mg/kg, circulation, read-out: t½ (converted)
metric: half-life (min)
Dear colleague, please return just the value in min, with no unit written.

// returns reported half-life for input COc1ccc2sc(-c3cncc(NC(C)=O)c3)nc2c1
43

* * *

- method_notes: Rat IV pharmacokinetics
- Format: in vivo
- condition_context: male, Sprague-Dawley, plasma, iv, 1 mg/kg, IV bolus 1 mg/kg, read-out: Time of maximum venous concentration (Tmax) (converted)
metric: Tmax (min)
Dear colleague, please return just the value in min, with no unit written.

// returns reported Tmax for input COc1ccc2sc(-c3cncc(NC(C)=O)c3)nc2c1
2

* * *

- method_notes: Mouse IV pharmacokinetics (plasma and brain)
- Type: in vivo
- condition_context: C57Bl, IV 1 mg/kg, plasma
metric: Vd (L/kg)
Dear colleague, please return just the value in L/kg, with no unit written.

// returns reported Vd for input COc1ccc2sc(-c3cncc(NC(C)=O)c3)nc2c1
1.39

* * *

- method_notes: Mouse IV pharmacokinetics (plasma and brain)
- Type: in vivo
- condition_context: C57Bl, IV 1 mg/kg, plasma
metric: Tmax

// returns reported Tmax for input COc1ccc2sc(-c3cncc(NC(C)=O)c3)nc2c1
4.8 min

* * *

- method_notes: Mouse IV pharmacokinetics (plasma and brain)
- Type: in vivo
- condition_context: C57Bl, IV 1 mg/kg, plasma, read-out: t½ (converted)
metric: half-life (min)
Dear colleague, please return just the value in min, with no unit written.

// returns reported half-life for input COc1ccc2sc(-c3cncc(NC(C)=O)c3)nc2c1
9
